Value source: ChEMBL document CHEMBL1201862

- System: CCRF-CEM
- measurement.notes: NCI tumour cell line growth inhibition, 48 h
Active and inactive are the calls of the source. Rule as the data show it: active = GI50 up to about 1.1 µM and inactive = higher.
Classes used: active, inactive

# molecule, assigned.class
records = [
    ("CN(/N=C/c1cccc2cccnc12)c1ccc([N+](=O)[O-])cc1[N+](=O)[O-]", "inactive"),
    ("C#CCOC(=O)C(=[N+]=[N-])C(=O)CC(C)C", "inactive"),
    ("CC1/C(=N/O)CC(c2ccccc2)N(N=O)C1c1ccccc1 (stereo unspecified)", "inactive"),
    ("CCOc1ccc(NC(=O)C(=O)C2C(=O)Nc3ccccc3[S+]2[O-])cc1 (stereo unspecified)", "inactive"),
    ("CCC(=O)C1(N2CCOCC2)CCN(CCCC(=O)c2ccc(F)cc2)CC1", "inactive"),
    ("O=C1c2n[nH]nc2C(=O)c2n[nH]nc21", "inactive"),
    ("CN(C)C(=O)/N=c1\\ss/c(=N\\C(=S)N(C)C)n1-c1ccccc1", "active"),
    ("CC1(C)C2CCC3(OCCO3)C1C1OC12 (stereo unspecified)", "inactive"),
    ("CCCCCCCCCCCCCCCC(=O)N(CCCCCCCCCCC(=O)O)CC(O)C(O)C(OC1OC(CO)C(O)C(O)C1O)C(O)CO (stereo unspecified)", "inactive"),
    ("COc1ccc(NC(=O)C(=O)NO)c(OC)c1", "inactive"),
    ("Cc1n[nH]c(C(F)(F)F)c1/N=N/N(C)C", "inactive"),
]

---

Let's look at some molecules and their measured GI50.
- System: CAKI-1
- measurement.notes: NCI tumour cell line growth inhibition, 48 h
Activity calls are given as the source filed them. No stated cut-off is given here; in the data, active = GI50 up to about 1.1 µM and inactive = higher.

# molecule, assayed.system, GI50
rows = [
    ("O=C1OCc2c1cc1ccc(O)c(OC3OC(CO)C(O)C(O)C3O)c1c2-c1ccc2c(c1)OCO2 (centres undefined)", "CAKI-1", "87.3 µM (inactive)"),
    ("CC(=O)[O-].[Zn+].c1ccc(/C(=N\\Nc2ccccn2)c2ccccn2)cc1", "CAKI-1", "0.119 µM (active)"),
    ("CC1=C2c3c(C)ccc4ccc(C)c(c34)C2(O)C(C)C1=O (centres undefined)", "CAKI-1", "52.1 µM (inactive)"),
    ("Cc1ccc2c(=O)c(C(=O)Nn3c(C)csc3=S)c[nH]c2n1", "CAKI-1", "69 µM (inactive)"),
    ("O=C1OC(c2ccc(O)cc2)(c2ccc(O)cc2)c2ccc(Cl)c3cccc1c23.O=C1OC(c2ccc(O)cc2)(c2ccc(O)cc2)c2cccc3c(Cl)ccc1c23", "CAKI-1", "8.51 µM (inactive)"),
    ("O=C1NC(=O)/C(=C/c2ccc(S(=O)(=O)N/N=C\\C(O)C(O)C(O)C(O)CO)cc2)N1 (centres undefined)", "CAKI-1", "> 100 µM (inactive)"),
    ("c1ccc(NC[Si]23OCCN(CCO2)CCO3)cc1", "CAKI-1", "> 100 µM (inactive)"),
    ("CO/C=C(/C(=O)OC)c1ccccc1[C@@H]1CC1c1cccc(F)c1 (some centres undefined)", "CAKI-1", "18.6 µM (inactive)"),
    ("CCOc1ccccc1NC(=O)C(=O)CC(=O)C1=C(C)Nc2ccccc2S1", "CAKI-1", "> 100 µM (inactive)"),
]

---

- Test system: Hs-578T
- measurement.notes: NCI tumour cell line growth inhibition, 48 h
Active and inactive are the calls of the source. No stated cut-off is given here; in the data, active = GI50 up to about 1.1 µM and inactive = higher.
Classes used: true (active), false (inactive)

# molecule, assigned.class
measured = [
    ("Nc1ccc(C(=O)Nn2c(-c3ccccc3)nc3ccccc3c2=O)cc1", "false"),
    ("O=C(O)c1cccc(CN2CCCCC2)c1", "false"),
    ("O=[N+]([O-])/C=C/c1cn(CCCCCCCCn2cc(/C=C/[N+](=O)[O-])c3ccccc32)c2ccccc12", "false"),
    ("CO/C=C(/C(=O)OC)c1ccccc1[C@@H]1CC1c1cccc(F)c1 (stereo not given in full)", "false"),
    ("CC1=C(O)C(=O)C=C2C1=CC=C1[C@@]2(C)CC[C@@]2(C)C3C[C@@H](C)C(=O)[C@@H](O)[C@]3(C)CC[C@]12C (stereo not given in full)", "false"),
    ("CCCC(=O)Oc1ccc2c(C)cc(=O)oc2c1OC(=O)CCC", "false"),
    ("FC(F)(F)C1(C(F)(F)F)C2CCC3(CC(F)(F)C(F)(F)S3)C1C2 (stereo not given)", "false"),
    ("Cc1c2c(n(CCN(C)C)c1C)NN=C(C#N)S2(=O)=O", "false"),
    ("Cc1ccc([N+](=O)[O-])cc1S(=O)(=O)Nc1ccc(C(=O)/C=C/c2ccccc2)cc1", "false"),
    ("CC1C(c2ccc(Cl)cc2)c2cc3c(cc2OC1N1CCOCC1)OCO3 (stereo not given)", "false"),
    ("Cc1ccc(C(=O)Cn2c(C(=O)/C=C/c3cccs3)nc3ccccc32)cc1", "false"),
    ("O=C(O)CCCc1ccc2ccc3ccccc3c2c1", "false"),
    ("CCC(=O)C1(N2CCOCC2)CCN(CCCC(=O)c2ccc(F)cc2)CC1", "false"),
    ("CC(C)(C)c1cc2c(O)c(c1)Cc1cc(C(C#N)(Cc3ccc4ccccc4c3)Cc3ccc4ccccc4c3)cc(c1O)Cc1cc(C(C)(C)C)cc(c1O)Cc1cc(C(C#N)(Cc3ccc4ccccc4c3)Cc3ccc4ccccc4c3)cc(c1O)C2", "false"),
    ("CN(NC(=O)/C(=C\\c1ccco1)NC(=O)c1ccccc1)c1cn[nH]c(=O)c1Cl", "false"),
    ("COc1ccc(-c2cc(=O)c3c(OC)c(O)c(OC)cc3o2)cc1", "false"),
    ("CC1(C)OC[C@@H](O)[C@H](Br)CO1", "false"),
    ("Cc1ccc(Nc2nnc(-c3ccc4c(c3)OCO4)o2)c(C)c1", "false"),
    ("C=CC(=O)N1C/C(=C\\c2ccc([N+](=O)[O-])cc2)C(=O)/C(=C/c2ccc([N+](=O)[O-])cc2)C1", "true"),
    ("CC(C)(C)c1ccc(-n2c3nc(=O)n(-c4ccccc4CO)c(=O)c-3cc3ccccc32)cc1", "false"),
]

---

- Test system: HOP-92
- measurement.notes: NCI tumour cell line growth inhibition, 48 h
Calls of active or inactive are those of the source. Cut-off read from the data, not from the text of the source: active = GI50 up to about 1.1 µM and inactive = higher.
Classes used: 1 (yes) for active, 0 (no) for inactive

# compound, assigned.class
data = [
    ("Nc1ccc(S(=O)(=O)Nc2nc3ccccc3nc2Nc2ccc(S(N)(=O)=O)cc2)cc1", "0 (no)"),
    ("O=C(O)CCCc1ccc2ccc3ccccc3c2c1", "0 (no)"),
    ("Cc1c2cc[n+](C)cc2c(C)c2c1[nH]c1ccc(Cl)cc12", "0 (no)"),
    ("O=S(=O)(F)Cc1ccccc1 [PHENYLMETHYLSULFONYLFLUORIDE]", "0 (no)"),
    ("CC1=C2C3OC(=O)C(C)C3C(O)C[C@@]2(C)C(=O)CC1 (stereo partly specified)", "0 (no)"),
    ("Clc1ccc(C2=C(c3ccccc3)C(c3ccc(Cl)cc3)N3C(=N[C@H]4CCCC[C@@H]43)N2)cc1 (stereo partly specified)", "0 (no)"),
    ("Cc1cccc(/C=N/NC(=S)N(C)CCc2ccccn2)n1", "1 (yes)"),
    ("N#Cc1c(C(N)=O)ncn1Cc1ccccc1", "0 (no)"),
    ("O=C1c2cccnc2-c2nccc3ccnc1c23", "1 (yes)"),
    ("Nc1c(C(=O)c2ccc(Cl)cc2)[nH]c(Nc2ccc(Cl)cc2)c1C(=S)Nc1ccccc1", "0 (no)"),
    ("O=c1[nH]cc(/C=N\\Nc2ccccc2)c(=O)[nH]1", "0 (no)"),
]

---

Let's look at some compounds and their measured GI50.
- Tested on: LXFL 529
- measurement.notes: NCI tumour cell line growth inhibition, 48 h
Calls of active or inactive are those of the source. Rule as the data show it: active = GI50 up to about 1.1 µM and inactive = higher.
reported.endpoint: GI50

# compound, assayed.system, reported.value
data = [
    ("CC(=O)Nc1ccc(-c2nnc(SCC(=O)Nc3cccc(C)c3)o2)cc1", "LXFL 529", "10.9 µM (inactive)"),
    ("C=C(Nc1ccc(OC)cc1OC)C(=O)Cc1cccc[n+]1[O-]", "LXFL 529", "> 100 µM (inactive)"),
    ("O=S1(=O)CCN(c2ccccc2CC(c2c[nH]c3ccccc23)c2c[nH]c3ccccc23)CC1", "LXFL 529", "4.13 µM (inactive)"),
    ("COc1ccc2nc3cccc(C(=O)NCCN(C)C)c3nc2c1", "LXFL 529", "1.26 µM (inactive)"),
    ("CCOC(=O)c1c2ccc(/C=C/c3ccccn3)ccc-2c(C(=O)OCC)c1N", "LXFL 529", "72.6 µM (inactive)"),
    ("O=C1C=C(Br)c2c(-c3ccccc3)oc3cccc1c23", "LXFL 529", "> 65.2 µM (inactive)"),
    ("Cc1cc(C)c(C(=O)/C=C/c2ccccc2)c(C)c1", "LXFL 529", "31.6 µM (inactive)"),
    ("CN1CCN=C1c1nnn(-c2ccc([N+](=O)[O-])cc2)c1-c1ccccc1", "LXFL 529", "> 100 µM (inactive)"),
    ("CCOC(=O)c1cc(-c2ccc(-c3cc(C(=O)OCC)c(C#N)c(N)c3C#N)cc2)c(C#N)c(N)c1C#N", "LXFL 529", "> 100 µM (inactive)"),
    ("CC1/C(=N\\O)CC(c2ccccc2)N(C)C1c1ccccc1 (stereo not given)", "LXFL 529", "> 100 µM (inactive)"),
]
